Please respond with reported Inhibitory rate for every item in the list.
# Tested on: MCF-7 cells
# assayRemarks: MTT assay for cell proliferation, MCF-7
# Type: cell-based
# Set-up: key: inhibition rate = 1 - mean A490 sample/mean A490 control (fraction)
# protocolConditions: given as fraction; second of three experiments
One number for each entry.

                                   molecule          measure  quantitativereadout
0  COc1c2n(cc(C(=O)Nc3cccc(-c4cn(-c5cccc(Cl)c5)nn4)c3)c1=O)CC1OCC(C)N1C2=O (stereo not drawn)  Inhibitory rate               0.4958
1  COc1c2n(cc(C(=O)Nc3cccc(-c4cn(-c5ccccc5C(F)(F)F)nn4)c3)c1=O)C[C@H]1OC[C@H](C)N1C2=O  Inhibitory rate               0.4929

Could you tell me which Inhibitory rate is on file for COc1c2n(cc(C(=O)Nc3cccc(-c4cn(-c5ccc(F)cc5)nn4)c3)c1=O)CC1OCC(C)N1C2=O (stereo not drawn) ?
0.5123

Values were extracted from paper PMC10590056.
